Molecular target: D(1A) dopamine receptor (Homo sapiens) (UniProt P21728)
Sequence (P21728 whole entry): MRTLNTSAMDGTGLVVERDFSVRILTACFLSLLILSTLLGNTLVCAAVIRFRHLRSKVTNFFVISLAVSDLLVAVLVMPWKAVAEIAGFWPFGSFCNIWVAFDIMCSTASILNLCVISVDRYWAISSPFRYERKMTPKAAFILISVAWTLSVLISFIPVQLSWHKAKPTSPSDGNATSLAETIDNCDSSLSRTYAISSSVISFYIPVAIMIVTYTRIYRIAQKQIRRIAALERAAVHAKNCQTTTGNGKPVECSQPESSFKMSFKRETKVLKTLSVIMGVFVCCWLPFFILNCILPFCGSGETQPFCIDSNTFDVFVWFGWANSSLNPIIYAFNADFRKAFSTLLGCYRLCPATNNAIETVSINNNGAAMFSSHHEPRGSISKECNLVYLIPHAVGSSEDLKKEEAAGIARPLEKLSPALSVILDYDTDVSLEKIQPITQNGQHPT
Experiment: SafetyScreen: D1 Human Dopamine GPCR Binding Antagonist Radioligand LeadHunter Assay, catalogue number: 44
Settings: Test compound concentration 10.0 uM
inhibition overview
measurementLabel: inhibition

> print(dat)
                                        smi  result
1  CC(C)[C@H](Nc1ncnc2[nH]ccc12)c1ccc2c(c1)S(=O)(=O)CCC2     -4%
2  CNCc1cc(-c2cc3c(N[C@@H](c4ccc5c(c4)S(=O)(=O)CCC5)C(C)C)ncnc3[nH]2)co1     14%
3  CC(C)[C@H](Nc1ncnc2[nH]c(-c3cnn(C)c3C#N)cc12)c1ccc2c(n1)OCCO2     27%
4  CNC(=O)Cn1cc(-c2cc3c(N[C@@H](c4ccc5c(c4)S(=O)(=O)CCC5)C(C)C)ncnc3[nH]2)cn1      1%
5  C[C@H](C(=O)O)[C@@H](NC(=O)c1ncnc2[nH]ccc12)c1ccc(Br)cc1     -8%
